experimentalSystem: Progesterone receptor (Homo sapiens) (UniProt P06401)
Sequence (P06401 whole entry, looked up): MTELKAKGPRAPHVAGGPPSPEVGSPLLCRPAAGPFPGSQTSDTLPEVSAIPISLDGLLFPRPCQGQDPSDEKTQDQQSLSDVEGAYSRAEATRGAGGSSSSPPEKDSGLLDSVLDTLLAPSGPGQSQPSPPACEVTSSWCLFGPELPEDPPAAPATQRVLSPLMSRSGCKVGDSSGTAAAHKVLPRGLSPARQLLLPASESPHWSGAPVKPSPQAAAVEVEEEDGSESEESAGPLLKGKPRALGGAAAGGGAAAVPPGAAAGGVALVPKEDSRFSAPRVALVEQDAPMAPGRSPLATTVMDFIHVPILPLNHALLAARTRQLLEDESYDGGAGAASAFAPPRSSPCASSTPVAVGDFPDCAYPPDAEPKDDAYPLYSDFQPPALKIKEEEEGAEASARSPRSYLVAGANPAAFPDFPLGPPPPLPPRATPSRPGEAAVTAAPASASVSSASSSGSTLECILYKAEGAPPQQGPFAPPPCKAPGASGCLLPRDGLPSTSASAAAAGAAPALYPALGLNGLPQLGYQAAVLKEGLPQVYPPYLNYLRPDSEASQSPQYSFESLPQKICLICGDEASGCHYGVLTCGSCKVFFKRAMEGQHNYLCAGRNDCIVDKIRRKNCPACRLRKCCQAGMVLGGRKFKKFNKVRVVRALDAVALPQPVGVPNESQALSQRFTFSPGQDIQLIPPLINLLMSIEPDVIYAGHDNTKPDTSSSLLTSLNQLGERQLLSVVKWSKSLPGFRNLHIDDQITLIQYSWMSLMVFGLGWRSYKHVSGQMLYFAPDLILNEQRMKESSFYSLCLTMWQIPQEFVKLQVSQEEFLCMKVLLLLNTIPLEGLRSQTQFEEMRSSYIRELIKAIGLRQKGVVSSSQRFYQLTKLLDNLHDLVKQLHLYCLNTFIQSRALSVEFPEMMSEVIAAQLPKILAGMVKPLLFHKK
assayName: qHTS assay to identify small molecule antagonists of the progesterone receptor (PR) signaling pathway (AID 1346795)
testParameters: PR-UAS-bla HEK293T, beta-lactamase FRET ratio, 16 h; series mostly up to 92.4 µM
Inconclusive results are not listed. Calls of active or inactive are those of the source. Calls follow the shape of the dose curve; as a rule, active = well fitted inhibition curve with a large enough effect in the signal ratio in the repeat runs (not every such curve was filed as active); inconclusive = weak or mixed curves; inactive = flat fitted curve, though single readings scatter; the % refers to the signal ratio.
# output must be one of active, inactive

What is the recorded call for this molecule in the test? `CC(C)CCCCCCCOC(=O)c1ccccc1C(=O)OCCCCCCCC(C)C`
inactive

And `Cc1nc(N(C)C)nc(OC(=O)N(C)C)c1C` ?
inactive

And `c1ccc2c(c1)sc1ccccc12` ?
inactive

And `CCCBr` ?
inactive

And `C[Si](Cn1cncn1)(c1ccc(F)cc1)c1ccc(F)cc1` ?
active

And C[C@H]1O[C@H](OC2[C@@H](O)[C@@H](O)C(O)[C@H](O)[C@H]2O)[C@@H](N)C[C@@H]1N=C(N)C(=O)O (some centres not stated) ?
inactive

And COC1CC(=C(c2cccs2)c2cccs2)C[N+](C)(C)C1 (configuration not stated) ?
inactive

And CC(C)(C)NCC(O)c1cc(Cl)c(N)c(C(F)(F)F)c1 (configuration not stated) ?
inactive

And `CCSCc1ccccc1OC(=O)NC` ?
inactive

And `Oc1cccc(Cl)c1` ?
inactive

And `C=C(Cl)Cl` ?
inactive

And `O=C(NC(=O)c1cc(F)c(F)cc1Cl)Nc1cc(F)ccc1N1CCC(C(=O)O)CC1` ?
inactive

And O=C(NCNC(=O)NC1C(=O)NC(=O)N1CO)NC1C(=O)NC(=O)N1CO (configuration not stated) ?
inactive

And `CCCCCCCCCCCCCCCl` ?
inactive

And `CCCCOC(=O)CCC(=O)OCCCC` ?
inactive

And `C=CCN1C[C@H](C)N([C@H](c2ccc(C(=O)N(CC)CC)cc2)c2cccc(OC)c2)C[C@H]1C` ?
inactive

And CC[N+]1(C)CCCC(OC(=O)C(O)(c2ccccc2)c2ccccc2)C1 (configuration not stated) ?
inactive

And `C=C(C)C(=O)OCCCCOC(=O)C(=C)C` ?
inactive

And `O=C(N[C@H]1CN2CCC1CC2)c1ccc2c(c1)OCCO2` ?
inactive

And `C[N+]1(CCC(C(N)=O)(c2ccccc2)c2ccccc2)CCCCC1` ?
inactive

And `O=[N+]([O-])c1cc(Cl)c(Cl)cc1Cl` ?
inactive

And `NC(=O)CF` ?
inactive

And `CC(C)CCON=O` ?
inactive

And CCOC(=O)C1OC1(C)c1ccccc1 (configuration not stated) ?
inactive

And `O=C(O)c1cc(I)cc(I)c1I` ?
inactive

And `C=CCSSCC=C` ?
inactive

And CCCC(C)(COC(N)=O)COC(=O)NC(C)C (configuration not stated) ?
inactive

---

experimentalSystem: Peroxisome proliferator-activated receptor gamma (Homo sapiens)
assayName: qHTS assay to identify small molecule antagonists of the peroxisome proliferator-activated receptor gamma (PPARg) signaling pathway (AID 743191); also: % is scaled to controls: 0 for no effect and ±100 for the full control effect; nearly all actives have a fitted effect of over 30% in size
testParameters: HEK293H PPARg-UAS-bla, beta-lactamase ratio, antagonist, 17 h; series mostly up to 62.6 µM
Records with an inconclusive call do not appear. Active and inactive are the calls of the source. Calls follow the shape of the full dose curve.
property: outcome

Sample answers from the record:
> print(dat)
                                   molecule    result
1  CC(C)[C@@H](C(=O)O[C@@H](C#N)c1cccc(Oc2ccccc2)c1)c1ccc(Cl)cc1  inactive
2  COC1=CC(=O)O[C@@H](/C=C/c2ccc3c(c2)OCO3)C1  inactive
3  O=C([O-])c1ccccn1.O=C([O-])c1ccccn1.O=C([O-])c1ccccn1.[Cr+3]  inactive
4                       N#CC(C#N)=C(C#N)C#N  inactive
5  CCCC[N+]1(C)[C@@H]2CC(OC(=O)[C@H](CO)c3ccccc3)C[C@H]1[C@@H]1O[C@@H]12 (some centres undefined)  inactive

Quick check: outcome of `CCNC(=O)NC(=O)/C(C#N)=N/OC` ?
inactive

And `CCc1ccccc1N` ?
inactive

And C#CC(O)(C=CCl)CC (centres undefined) ?
inactive

And `Nc1cc(Cl)cc(C(=O)O)c1Cl` ?
inactive

---

assayName: qHTS assay for small molecule agonists of the p53 signaling pathway (AID 651631); also: nearly all actives have a fitted effect of over 15% in size
testParameters: HCT-116 p53RE-bla reporter, beta-lactamase FRET ratio, 16 h; series mostly up to 73.3 µM
Inconclusive results are not listed. Activity calls are given as the source filed them. Calls follow the shape of the full dose curve.
# output must be one of class 1 for active, class 0 for inactive

What is the recorded call for this compound in the test? O=C(NCNC(=O)NC1C(=O)NC(=O)N1CO)NC1C(=O)NC(=O)N1CO (centres undefined)
class 0

And `CCCCOC(=O)CCC(=O)OCCCC` ?
class 0

And `O=C(Cl)OCCOCCOC(=O)Cl` ?
class 0

And C=CCOCC1CO1 (centres undefined) ?
class 0

And CCCC[P+](CC)(CCCC)CCCC (tested in a mixture with another compound) ?
class 0

And `CCC[N+](CCC)(CCC)CCC` ?
class 0

And `C=CCc1ccccc1O` ?
class 0

And CCCC[N+]1(C)[C@@H]2CC(OC(=O)[C@H](CO)c3ccccc3)C[C@H]1[C@@H]1O[C@@H]12 (some centres undefined) ?
class 0

And `CCCC[N+](CCCC)(CCCC)CCCC` ?
class 0

And `C=CC(=O)NC(C)(C)CC(C)=O` ?
class 0

And `CC(C)OC(=O)Cc1ccccc1` ?
class 0

And `CC1(C)CC(=O)CC(C)(C)N1[O]` ?
class 0

And COc1cc(CC(C)N)c(OC)cc1Br (centres undefined) ?
class 0

And CC[N+]1(C)CCCC(OC(=O)C(O)(c2ccccc2)c2ccccc2)C1 (centres undefined) ?
class 0

And `CCCCCl` ?
class 0

And CC(Cc1ccccc1)NCc1ccccc1Cl (centres undefined) ?
class 0

And CCCC1CCCCN1 (centres undefined) ?
class 0

And `CC(C)CCON=O` ?
class 0

And `CN1CC[C@]23c4c5ccc(O)c4O[C@H]2[C@@H](O)CC[C@H]3[C@H]1C5` ?
class 0

And `COc1ccc2c(c1OC)C(=O)O[C@H]2[C@@H]1c2cc3c(cc2CCN1C)OCO3` ?
class 0

And `NC(=S)c1c(Cl)cccc1Cl` ?
class 0

And CC(O)CN1CCN(CC(=O)[O-])CCN(CC(=O)[O-])CCN(CC(=O)[O-])CC1.[Gd+3] (centres undefined) ?
class 0

And `C[C@]12CC[C@H]3[C@@H](CCC4=CC(=O)CC[C@@H]43)[C@@H]1CC[C@@H]2OC(=O)CCc1ccccc1` ?
class 0

And `CCCN(CCC)C(=O)Cc1c(-c2ccc(Cl)cc2)nc2ccc(Cl)cn12` ?
class 0

And `CC(C)CCCCCCCOC(=O)c1ccccc1C(=O)OCCCCCCCC(C)C` ?
class 0

And `C[C@H](N)[C@H](O)c1ccc(O)c(O)c1` ?
class 0

And `CCCCNC(=O)OCC#CI` ?
class 1

And CCCCC1C(=O)NC(=O)N(C2CCCCC2)C1=O (centres undefined) ?
class 0

And C[C@H]1O[C@H](OC2[C@@H](O)[C@@H](O)C(O)[C@H](O)[C@H]2O)[C@@H](N)C[C@@H]1N=C(N)C(=O)O (some centres undefined) ?
class 0

And `CCCBr` ?
class 0

And `OCCCl` ?
class 0

And `OCCSSCCO` ?
class 0

And `COC(=O)C1(O)c2ccccc2-c2ccccc21` ?
class 0

And `C=C(Cl)Cl` ?
class 0

And `CN(C)N` ?
class 0

And `Clc1ccc2ccccc2c1` ?
class 0

And `C[N+](C)(C)CCOC(=O)C(O)(c1ccccc1)c1ccccc1` ?
class 0

And `OC[P+](CO)(CO)CO` ?
class 0

And `CN[C@@H](C)[C@H](O)c1ccccc1` ?
class 0

---

assayName: qHTS RealTime-Glo MT Cell Viability Assay in HEK293 cells - 40 hour (AID 1224874); also: potency is read from the fitted curve at half-maximal effect; nearly all actives have a fitted effect of over 50% in size
testParameters: RealTime-Glo luminescence
Records with an inconclusive call do not appear. The source made the active and inactive calls. Calls follow the shape of the dose curve; as a rule, active = well fitted cell-killing curve with a large enough effect in the repeat runs; inconclusive = weak or mixed curves, or effect the other way; inactive = flat fitted curve, though single readings scatter.
property: Potency

Quick check: Potency of `CCCN(CCC)C(=O)Cc1c(-c2ccc(Cl)cc2)nc2ccc(Cl)cn12` ?
5.35 µM (active)

And `CCOC(=O)c1cn2nc(OP(=S)(OCC)OCC)cc2nc1C` ?
15.5 µM (active)

And `C=CCOC(=O)C(C)(C)OC(=O)c1cc(-n2c(=O)cc(C(F)(F)F)n(C)c2=O)ccc1Cl` ?
21.5 µM (active)

And `[Cl-].[Cl-].[Hg+2]` ?
2.45 µM (active)

And `C=CCN1C[C@H](C)N([C@H](c2ccc(C(=O)N(CC)CC)cc2)c2cccc(OC)c2)C[C@H]1C` ?
19 µM (active)

And `Nc1ccccc1C(=O)OCCc1ccccc1` ?
24.5 µM (active)

meta.source: PubChem BioAssay (Tox21)
